Quick reference for inhibition among some compounds
Experiment: Inhibition of quorum sensing system in Chromobacterium violaceum ATCC 31532 assessed as reduction in violacein production at 100 uM
Use % as the unit, but write only the number.

compound | inhibition [%]
CCCCN1C[C@H]2N(C(=O)CN(c3ccc(C)cc3)N2C(=O)NCc2ccccc2)[C@@H](C(C)C)C1=O | 21

Next compound, inhibition to be filled in.
Ask | What inhibition value was documented for this compound, "CCCCN1C[C@H]2N(C(=O)CN(c3ccc(C)cc3)N2C(=O)NCc2ccccc2)[C@@H](Cc2ccc(Cl)cc2)C1=O" ?
Reply | 12

###

Assay: Inhibition of quorum sensing system in Chromobacterium violaceum ATCC 31532 assessed as reduction in violacein production at 100 uM
reportedMetric: inhibition (%)
Field format: number, assumed %, no unit text.

Ask | Using the record for C=CCNC(=O)N1[C@H]2CN(Cc3ccccc3)C(=O)[C@H](C(C)CC)N2C(=O)CN1c1ccc(C)cc1 (some centres undefined) , report its inhibition.
Reply | 49

Ask | Repeat for the following compound: "Cc1ccc(N2CC(=O)N3[C@@H](CC(C)C)C(=O)N(Cc4ccco4)C[C@@H]3N2C(=O)NCc2ccccc2)cc1"
Reply | 52

Ask | Further, for "O=[N+]([O-])c1cc[n+]([O-])cc1" ?
Reply | 66

Ask | Same for "C=CCNC(=O)N1[C@H]2CN(Cc3ccccc3)C(=O)[C@H](Cc3ccccc3)N2C(=O)CN1c1ccc(C)cc1"
Reply | 62
